Test system: L1210 leukemia ip in BDF1 mice, survival T/C
Protocol Notes: NCI In Vivo Anticancer Drug Screen. Data for tumor model L1210 Leukemia (intraperitoneal) in B6D2F1 (BDF1) mice
Run Conditions: endpoint: mean survival time; dose: 400.0 mg/kg/injection; schedule: Q01DX009 (ip); vehicle: saline; higher = longer survival
Inconclusive results and toxic doses are left out.

{"columns": ["Compound", "T/C"],
 "data": [
  ["CN(C)c1cc(F)c(C=O)cc1[N+](=O)[O-]", "100 % of control"],
  ["C#CCOCC1CN(C)C(=O)O1 (stereo unspecified)", "100 % of control"],
  ["CCN(CC)CCCNC=O", "94 % of control"],
  ["Cc1cc([N+](=O)[O-])c(N/N=C/c2c[nH]c3ccccc23)c([N+](=O)[O-])c1", "98 % of control"],
  ["O=S1(=O)CC(S(=O)(=O)O)C(S(=O)(=O)O)C1 (stereo unspecified)", "93 % of control"],
  ["CC(C)=C1C2C=CC1C(C(=O)N(C)C)C2C(=O)N(C)C (stereo unspecified)", "104 % of control"]
]}

====

System: L1210 leukemia ip in BDF1 mice, survival T/C
Protocol Notes: NCI In Vivo Anticancer Drug Screen. Data for tumor model L1210 Leukemia (intraperitoneal) in B6D2F1 (BDF1) mice
Run Conditions: endpoint: mean survival time; dose: 400.0 mg/kg/injection; schedule: Q04DX003 (ip); vehicle: Klucel (hydroxypropylcellulose) (HPC); higher = longer survival
Toxic doses and inconclusive results are not listed.
Below is a list of entries, each paired with its recorded T/C value.

{"columns": ["Compound", "T/C"],
 "data": [
  ["Cc1cc(N=Nc2ccc(N(C)C)cc2)ccn1", "91 % of control"],
  ["O=[N+]([O-])c1ccc(/C=C/c2ccccc2Cl)cc1", "107 % of control"],
  ["CCCCCCC(/C=C/C=C/c1ccccc1)=N\\O", "98 % of control"],
  ["CC(C)c1ccccc1OS(=O)(=O)c1ccc([N+](=O)[O-])cc1", "92 % of control"],
  ["NC(=S)N/N=C/c1ccco1", "103 % of control"],
  ["CCOC(=O)c1cc(/C=C/c2ccccc2)[nH]c(=O)c1C#N", "90 % of control"],
  ["N#C/C(=C\\c1ccncc1)c1cccc2ccccc12", "97 % of control"],
  ["C=CCOc1c(Cl)c(Cl)c(Cl)c(Cl)c1Cl", "96 % of control"],
  ["CCc1cc(C)cc(OC(=O)Nc2ccc(Cl)c(Cl)c2)c1", "91 % of control"],
  ["O=C(O)c1ccc(NC(C[N+](=O)[O-])C(F)(F)C(F)(F)C(F)(F)F)cc1 (centres undefined)", "100 % of control"],
  ["CCN(CCCl)c1ccc(N=Nc2cc(Cl)ccc2Cl)cc1", "104 % of control"],
  ["COC(=O)c1ccccc1NC(=O)Nc1cc(Cl)ccc1OC", "95 % of control"],
  ["CC(C)N(C(=O)Nc1cc([N+](=O)[O-])ccc1F)c1ccccc1", "96 % of control"],
  ["O=C(O)CC1CCCCC1c1ccccc1 (centres undefined)", "95 % of control"],
  ["CCOC(=O)c1[nH]c(-c2ccccc2)cc1-c1ccccc1", "108 % of control"],
  ["COCC1C2CC(=O)OC2C(I)C1OC(=O)c1ccc(-c2ccccc2)cc1 (centres undefined)", "91 % of control"],
  ["CC(C)=CCCNC(=O)NS(=O)(=O)c1ccc(Cl)cc1", "95 % of control"],
  ["Nc1cc([N+](=O)[O-])ccc1Cl", "103 % of control"],
  ["Cn1c(=O)c2[nH]c(Br)nc2n(C)c1=O", "106 % of control"],
  ["c1ccc2c(C3OCC4(CCCCC4)CO3)cccc2c1", "111 % of control"],
  ["CNc1cc(Cl)c(C#N)c(Cl)c1", "99 % of control"],
  ["CC1NC(=O)NC1=O (centres undefined)", "101 % of control"],
  ["c1ccc(C(c2ccccc2)(c2nccs2)n2ccnc2)cc1", "104 % of control"],
  ["COc1cc(NS(=O)(=O)c2ccccc2)ccc1C", "87 % of control"],
  ["CN(C)P(=O)(Nc1ccc(Cl)cc1)Nc1ccc(Cl)cc1", "100 % of control"],
  ["O=C(O)CCC(=O)Nc1ccc2c(c1)B(O)OC2", "88 % of control"],
  ["Cc1ccc(C)c(NC(=O)Nc2cccc(Cl)c2)c1", "87 % of control"],
  ["COc1cccc(/C=C/c2nccc3ccccc23)c1OC", "90 % of control"],
  ["Cn1c(=O)c2c(ncn2CCOC(=O)C(C)(C)Oc2ccc(Cl)cc2)n(C)c1=O", "93 % of control"],
  ["NC(=O)CNC(=O)OCc1ccccc1", "94 % of control"],
  ["CC12CCC(C)(O1)C1C(=O)OC(=O)C12 (centres undefined)", "98 % of control"],
  ["CC(O)COc1ccc(OCc2ccccc2)cc1 (centres undefined)", "92 % of control"],
  ["O=C(O)c1ccc(NCc2cccc([N+](=O)[O-])c2)cc1", "98 % of control"],
  ["O=C1OCC2CC3c4ccccc4C12c1ccccc13 (centres undefined)", "97 % of control"],
  ["Cc1ccc(/C(=C/c2ccc([N+](=O)[O-])cc2)C(=O)O)cc1", "95 % of control"],
  ["Nc1c(-c2ccccc2)[nH][nH]c1=O", "104 % of control"],
  ["CSc1ccccc1C=O", "95 % of control"],
  ["CCCCCCCCCCCCCCCCNc1cc(C)cc(C)c1", "101 % of control"],
  ["COc1cc(C)ccc1C(=O)c1ccc(C)cc1OC", "93 % of control"],
  ["Cc1ccc(NCN2C(=O)c3ccccc3C2=O)c(C)c1", "94 % of control"],
  ["Cc1cccc(C)c1NC(=O)Nc1cccc(Cl)c1", "89 % of control"],
  ["Cc1nc(Br)c(C(O)c2ccccc2)n1C (centres undefined)", "95 % of control"],
  ["C/C=C(/C(=O)O)c1ccccc1", "94 % of control"],
  ["CCCCP(=S)(CCCC)C1CCCC1", "101 % of control"],
  ["O=C(NC(CSC(=O)c1ccccc1)C(=O)O)OCc1ccccc1 (centres undefined)", "95 % of control"],
  ["CCCCCCCCCCCCCCCCCCSc1ccccc1", "94 % of control"],
  ["Clc1ccc(Br)c(Cl)c1", "93 % of control"],
  ["CC1CCC(C(C)C)C(NCc2cc(Br)cc(Br)c2O)C1 (centres undefined)", "98 % of control"],
  ["CC(C)(C)OC(=O)C1(c2ccccc2)OC1c1ccccc1 (centres undefined)", "96 % of control"]
]}

====

System: L1210 leukemia ip in BDF1 mice, survival T/C
Protocol Notes: NCI In Vivo Anticancer Drug Screen. Data for tumor model L1210 Leukemia (intraperitoneal) in B6D2F1 (BDF1) mice
Run Conditions: endpoint: mean survival time; dose: 150.0 mg/kg/injection; schedule: Q04DX003 (ip); vehicle: saline; higher = longer survival
Method: The antitumor activity of compounds was measured in mice bearing transplantable tumors. Survival or tumor size were measured and the results are expressed as the measurement made in the treated group (T) divided by the measurement made in the vehicle treated control group (C). The tumor model used in this assay is L1210 Leukemia (intraperitoneal) in B6D2F1 (BDF1) mice
Toxic doses and inconclusive results are not listed.

{"columns": ["Compound", "T/C"],
 "data": [
  ["CSCSCC(N)C(=O)O (centres undefined)", "100 % of control"],
  ["CN(C)CCC[N+]1([O-])c2ccccc2CCc2ccccc21", "88 % of control"],
  ["NC1CCCN(Cc2ccccc2)C1 (centres undefined)", "100 % of control"],
  ["Cc1nc2ccccc2[nH]c1=O", "100 % of control"]
]}

====

Test system: L1210 leukemia ip in BDF1 mice, survival T/C
Protocol Notes: NCI In Vivo Anticancer Drug Screen. Data for tumor model L1210 Leukemia (intraperitoneal) in B6D2F1 (BDF1) mice
Run Conditions: endpoint: mean survival time; dose: 200.0 mg/kg/injection; schedule: Q04DX003 (ip); vehicle: saline with Tween-80; higher = longer survival
Toxic doses and inconclusive results are not listed.
Attribute Measured: T/C

{"columns": ["Compound", "Assayed Target", "Assay Value"],
 "data": [
  ["Cc1ccc(C(=O)CCCCl)cc1C", "L1210 leukemia ip in BDF1 mice, survival T/C", "89 % of control"],
  ["CCN(CC)/N=N/c1[nH]ncc1C(N)=O", "L1210 leukemia ip in BDF1 mice, survival T/C", "103 % of control"],
  ["CC(=O)C(C(c1ccccc1)N1CCOCC1)N1CCOCC1 (centres undefined)", "L1210 leukemia ip in BDF1 mice, survival T/C", "96 % of control"],
  ["CNc1cc([N+](=O)[O-])ccc1OCc1ccccc1", "L1210 leukemia ip in BDF1 mice, survival T/C", "92 % of control"],
  ["O=C(O)CCC(=O)/C=C1/Nc2ccccc2C1=O", "L1210 leukemia ip in BDF1 mice, survival T/C", "90 % of control"],
  ["O=C(O)CNC(=O)/C(=C\\c1[nH]c(=O)[nH]c(=O)c1Br)NC(=O)c1ccccc1", "L1210 leukemia ip in BDF1 mice, survival T/C", "104 % of control"],
  ["CCOC(=O)c1ccc(NC(=O)Nc2ccc(OC)cc2Cl)cc1", "L1210 leukemia ip in BDF1 mice, survival T/C", "97 % of control"],
  ["Cc1ccc(S(=O)(=O)c2ccc(F)cc2)cc1", "L1210 leukemia ip in BDF1 mice, survival T/C", "95 % of control"],
  ["C(=N\\n1cnnc1)/c1ccc(/C=N/n2cnnc2)cc1", "L1210 leukemia ip in BDF1 mice, survival T/C", "105 % of control"]
]}
